Test Details: Luminescence Cell-Based Dose Confirmation HTS to Identify Inhibitors of Platelet Dense Granule Release. [Related pubchem assays: 1663 (Primary HTS), 1678 (Summary of Project)]
Assay type: functional
Active and inactive are the calls of the source.
Readout: EC50

Check out these entries, answers already filled in.
COC(=O)c1nn(-c2ccc3c(c2)CCN3C(C)=O)cc1O; 1.06 µM (active)
CN(C)c1oc(-c2ccco2)nc1C#N; > 112 µM (not active)
Cc1ccc(OCCC(=O)OCc2csc(CC(=O)Nc3ccccc3C)n2)cc1; > 112 µM (not active)
COc1ccccc1-n1cc(-c2ccc(Cl)cc2)nc1O; 1.89 µM (active)

Attention now turns to another entry.
Specify EC50 for `O=C(Nc1ccccc1)c1cccc(N2CCCC2=O)c1` and stop. 45.5 µM (active)

* * *

Reported EC50 values for the following compounds.
Test Details: inhibitors of firefly luciferase expression or activity, dose response, H4 neuroglioma cells, luminescence (AID 1990)
Assay type: functional, cell-based
Activity calls are given as the source filed them.

Known EC50 results, listed for orientation:
COc1ccc(-c2nn(-c3ccccc3)cc2/C=N/NC(=S)NC(C)C)cc1OC; 20.2 µM (active)
CC/N=C1\S/C(=C\c2ccc(Sc3ccc(Cl)cc3)o2)C(=O)N1CC; 21.4 µM (active)
COc1ccc(CCNC(=O)CC2(CC3=NS(=O)(=O)c4ccccc4N3)CCCC2)cc1OC; 18.8 µM (active)

--- query ---
Name the recorded EC50 of the item `Cc1ccnc(NC(=O)CCC(=O)c2cccs2)c1` in your answer. 4.73 µM (inconclusive)

* * *

Tgt: UniProt P49327
Sequence (P49327 whole entry, the tested form may be a part): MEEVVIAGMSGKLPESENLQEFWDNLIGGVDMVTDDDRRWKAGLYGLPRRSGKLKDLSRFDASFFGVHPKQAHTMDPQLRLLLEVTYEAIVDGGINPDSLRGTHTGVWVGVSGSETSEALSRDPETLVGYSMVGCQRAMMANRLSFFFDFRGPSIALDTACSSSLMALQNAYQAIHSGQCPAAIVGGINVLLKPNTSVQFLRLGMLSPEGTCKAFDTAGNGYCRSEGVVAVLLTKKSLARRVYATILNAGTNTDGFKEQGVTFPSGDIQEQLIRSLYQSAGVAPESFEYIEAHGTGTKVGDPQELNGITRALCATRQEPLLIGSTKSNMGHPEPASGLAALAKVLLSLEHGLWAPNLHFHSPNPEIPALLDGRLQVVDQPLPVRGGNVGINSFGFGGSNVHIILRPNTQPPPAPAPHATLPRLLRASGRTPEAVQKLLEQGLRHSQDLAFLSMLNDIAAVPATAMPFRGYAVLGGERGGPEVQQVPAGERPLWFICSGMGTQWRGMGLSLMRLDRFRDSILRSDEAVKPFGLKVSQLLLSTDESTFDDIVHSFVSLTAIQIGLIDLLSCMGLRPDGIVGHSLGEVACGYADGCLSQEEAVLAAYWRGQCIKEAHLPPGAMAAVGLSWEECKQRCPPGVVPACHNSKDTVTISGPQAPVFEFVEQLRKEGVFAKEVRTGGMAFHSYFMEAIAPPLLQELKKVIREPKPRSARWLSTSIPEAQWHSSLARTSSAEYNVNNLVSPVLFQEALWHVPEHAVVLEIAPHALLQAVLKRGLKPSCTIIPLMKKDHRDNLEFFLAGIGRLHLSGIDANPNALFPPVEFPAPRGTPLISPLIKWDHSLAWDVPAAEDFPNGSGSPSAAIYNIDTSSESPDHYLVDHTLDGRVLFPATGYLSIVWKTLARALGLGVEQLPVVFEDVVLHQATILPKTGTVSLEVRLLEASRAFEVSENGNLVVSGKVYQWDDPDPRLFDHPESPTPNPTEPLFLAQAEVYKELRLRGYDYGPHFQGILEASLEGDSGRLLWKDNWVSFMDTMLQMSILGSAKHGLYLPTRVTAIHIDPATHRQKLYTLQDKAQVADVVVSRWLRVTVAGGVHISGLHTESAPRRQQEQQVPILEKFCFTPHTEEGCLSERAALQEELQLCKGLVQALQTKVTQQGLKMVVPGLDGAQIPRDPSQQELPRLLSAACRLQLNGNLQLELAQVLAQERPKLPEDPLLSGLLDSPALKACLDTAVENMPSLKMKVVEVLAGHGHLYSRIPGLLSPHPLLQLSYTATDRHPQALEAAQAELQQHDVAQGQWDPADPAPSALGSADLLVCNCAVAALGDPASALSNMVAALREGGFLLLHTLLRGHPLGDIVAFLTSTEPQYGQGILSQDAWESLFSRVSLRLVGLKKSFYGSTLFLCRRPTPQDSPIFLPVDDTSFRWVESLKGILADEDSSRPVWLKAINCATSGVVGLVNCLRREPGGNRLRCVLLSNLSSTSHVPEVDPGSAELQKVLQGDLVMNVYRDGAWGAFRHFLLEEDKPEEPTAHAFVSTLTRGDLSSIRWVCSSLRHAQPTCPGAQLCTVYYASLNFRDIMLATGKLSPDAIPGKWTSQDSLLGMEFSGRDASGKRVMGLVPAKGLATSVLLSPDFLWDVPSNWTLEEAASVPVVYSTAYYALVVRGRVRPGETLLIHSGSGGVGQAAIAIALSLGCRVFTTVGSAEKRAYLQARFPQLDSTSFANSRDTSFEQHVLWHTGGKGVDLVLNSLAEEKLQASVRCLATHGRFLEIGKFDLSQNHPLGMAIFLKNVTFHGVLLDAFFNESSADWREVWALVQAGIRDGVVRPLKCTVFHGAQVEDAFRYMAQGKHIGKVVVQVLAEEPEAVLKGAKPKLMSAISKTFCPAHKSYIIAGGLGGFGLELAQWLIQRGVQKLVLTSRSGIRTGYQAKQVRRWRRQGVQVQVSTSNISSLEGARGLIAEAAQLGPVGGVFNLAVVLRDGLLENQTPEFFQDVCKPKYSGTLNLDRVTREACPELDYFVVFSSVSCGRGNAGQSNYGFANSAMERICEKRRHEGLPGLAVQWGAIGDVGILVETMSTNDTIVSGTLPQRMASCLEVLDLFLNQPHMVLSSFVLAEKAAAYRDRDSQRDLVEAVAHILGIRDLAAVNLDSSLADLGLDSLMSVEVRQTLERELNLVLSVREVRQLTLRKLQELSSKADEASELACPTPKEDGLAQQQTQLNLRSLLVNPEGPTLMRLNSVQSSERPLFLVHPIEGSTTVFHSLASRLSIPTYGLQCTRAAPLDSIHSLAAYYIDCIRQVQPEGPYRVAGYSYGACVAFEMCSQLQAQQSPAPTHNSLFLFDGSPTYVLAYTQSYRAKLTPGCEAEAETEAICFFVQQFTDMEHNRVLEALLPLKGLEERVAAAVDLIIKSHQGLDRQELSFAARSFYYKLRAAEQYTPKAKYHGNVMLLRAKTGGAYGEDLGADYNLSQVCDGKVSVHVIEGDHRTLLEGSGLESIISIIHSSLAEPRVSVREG
Test Details: FAS thioesterase domain inhibitors, dose response, biochemical, kinetic fluorescence intensity (AID 624326);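 note: rate of fluorescence rise from hydrolysis of a fluorogenic O-methyl fluorescein ester substrate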
Format: functional
Activity calls are given as the source filed them.
Readout: IC50

The examples below pair each entry with its known result.
O=S(=O)(c1ccc(-c2csc(-c3cccnc3)n2)cc1)N1CCOCC1; 4.92 µM (active)
O=C(NCCC(=O)N(CCc1ccccc1)Cc1ccccc1)c1ccc([N+](=O)[O-])cc1; 8.92 µM (active)
O=C(NCc1ccc(C(F)(F)F)cc1)C1CC(c2c(Cl)cccc2Cl)=NO1 (stereo not given); 9.63 µM (active)
O=C(Nc1ccc(C(F)(F)F)cc1)c1cccc(-n2cnnn2)c1; 5.97 µM (active)

Using known records, supply IC50 for `O=C(Cn1cc([N+](=O)[O-])cn1)N1CCc2ccccc2C1` 7.62 µM (active)

* * *

Entries and their AC50 values follow.
Tgt: UniProtKB Q63470
Assay type: biochemical, Homo sapiens
The source made the active and inactive calls.

Below: 5 compounds and their reported AC50.
O=C(Nc1cccc2nsnc12)c1ccc2c(c1)OCO2; 11700 nM (active)
C/C(=N/Cc1cccnc1)C1=C(O)c2ccccc2C1=O; 12900 nM (active)
CCOc1cc(/C=C2\SC(N3CCCCC3)=NC2=O)ccc1O; 678 nM (active)
NS(=O)(=O)c1ccc(Nc2nc(-c3ccc(O)cc3O)cs2)cc1; 1940 nM (active)
O=c1c(O)c(-c2ccc(O)c(O)c2)oc2cc(O)ccc12; 248 nM (active)

Report the value of AC50 obtained on UniProtKB Q63470 for `CC(=O)Nc1cccc(-c2cnc3ccccc3n2)c1` . 6100 nM (active)

Fill: AC50 (UniProtKB Q63470) for this compound `Oc1ccc2ccc3[nH]cnc3c2c1` 2470 nM (active)
